System: SNB-19 CNS
TEST_DESCRIPTION: NCI-60 one-dose screen, 48 h
STATED_CONDITIONS: 10 µM unless noted
Compounds without any hit were thinned out: in the full panel of roughly 83,000, 20% have a hit. The source made the active and inactive calls. The calls were made as follows: active = growth percent below 10; inactive = the rest.
Outcome codes: class 1 = active, class 0 = inactive

{"COMPOUND": "CCOC(=O)c1nn(C2CCCCO2)c2ccc(NC(=O)CN3CCCC3)cc12 (configuration not stated)", "CATEGORY_LABEL": "class 0"}
{"COMPOUND": "O=C1COCCN1c1ccc(NCc2cn(Cc3ccccc3)c3ccccc23)cc1", "CATEGORY_LABEL": "class 0"}
{"COMPOUND": "Cc1ccc(S(=O)(=O)Oc2ccc(Br)cc2Br)cc1", "CATEGORY_LABEL": "class 0"}
{"COMPOUND": "c1cc2ccc1CNCCN1CCNCc3ccc(cc3)Oc3ccc(cc3)CNCCN(CCNCc3ccc(cc3)O2)CCNCc2ccc(cc2)Oc2ccc(cc2)CNCC1", "CATEGORY_LABEL": "class 1"}
{"COMPOUND": "CCCC(NC(=O)OCc1ccccc1)C(=O)O (configuration not stated)", "CATEGORY_LABEL": "class 0"}
{"COMPOUND": "O=C(Nc1cccnc1)c1ccc2ccc3ccc(C(=O)Nc4cccnc4)nc3c2n1", "CATEGORY_LABEL": "class 0"}
{"COMPOUND": "CN(C)Cc1ccc[nH]1", "CATEGORY_LABEL": "class 0"}
{"COMPOUND": "COc1ccc(-c2cc(-c3ccc(OC)c(OC)c3)nc(SCCCCCC(=O)NO)n2)cc1", "CATEGORY_LABEL": "class 0"}
{"COMPOUND": "ClC1=C(Cl)C(Cl)=C(Cl)C1=Cc1ccccc1", "CATEGORY_LABEL": "class 1"}
{"COMPOUND": "CCOC(=O)C(c1ccccc1)N1C(=O)c2ccccc2C1=O (configuration not stated)", "CATEGORY_LABEL": "class 0"}
{"COMPOUND": "CCCCCCNC(=O)Nc1ncnc2c1ncn2-c1ccccc1", "CATEGORY_LABEL": "class 0"}
{"COMPOUND": "NC(=S)Cc1ccccc1", "CATEGORY_LABEL": "class 0"}
{"COMPOUND": "COc1ccc2c(c1)C(C)Cc1c(Cl)ncnc1N2C (configuration not stated)", "CATEGORY_LABEL": "class 0"}
{"COMPOUND": "CCCCCn1sc(=O)n(Cc2ccc(CNC(=O)OCc3ccc4cccc(O)c4n3)cc2)c1=O", "CATEGORY_LABEL": "class 0"}
{"COMPOUND": "C=C(C)[C@@H]1CC[C@]2(C(=O)NCCNCCNCCN)CC[C@]3(C)[C@H](CC[C@@H]4[C@@]5(C)CCC(=O)C(C)(C)[C@@H]5CC[C@]43C)[C@@H]12", "CATEGORY_LABEL": "class 1"}
{"COMPOUND": "O=C1CC(c2ccccc2)Cc2nc3ccc(Br)cc3cc21 (configuration not stated)", "CATEGORY_LABEL": "class 0"}
{"COMPOUND": "CCN(CCNc1ccc(C)c2sc3cc(Cl)ccc3c(=O)c12)CC(C)O (configuration not stated)", "CATEGORY_LABEL": "class 0"}
{"COMPOUND": "Cc1cc(C)nc(SCC(=O)Nc2cccc(N=Cc3ccccc3O)c2)n1", "CATEGORY_LABEL": "class 0"}
{"COMPOUND": "CC(C)[N+](C)(C)CC(O)COc1cccc2ccccc12 (configuration not stated)", "CATEGORY_LABEL": "class 0"}
{"COMPOUND": "CC(=O)Nc1ccc2nc3ccc(NC(C)=O)cc3[n+](-c3ccccc3)c2c1", "CATEGORY_LABEL": "class 0"}
{"COMPOUND": "C=CCCCCCCCCC(=O)OC(C)C", "CATEGORY_LABEL": "class 0"}
{"COMPOUND": "CCCn1ccnc1C(O)c1ccc(OCc2ccccc2)c(OC)c1 (configuration not stated)", "CATEGORY_LABEL": "class 0"}
